B1: TMEM175 (parent)
chain: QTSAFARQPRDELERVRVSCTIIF

Variants of: B1
METHOD: protein stability index of a GFP-peptide fusion (GPS, HEK-293T) (PSI 1-6); higher = more stable;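 note: lentivirally expressed fusions sorted by FACS into six bins by GFP to DsRed ratio, PSI derived from sequencing read proportions per bin multiplied by bin number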
PARTICULARS: c terminus: a fixed tail appended
For each of the variants below, state its protein stability index.

Here are 3 variants together with their reported answers.
S3A = 3.58
R17G = 2.53
F24D = 3.47

# next variant below
Q: Which protein stability index value is on record for `E12Y` ?
Result: 2.81
